target: T1, soluble form of GPC3 core protein (human, UniProt P51654 25-563); test: competitive ELISA on coated soluble GPC3 core protein; labelled competitor biotin-M6B1;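 further: Biotin-labelled antibody added as 10 µL at 10 µg/mL for 1 h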
T1 construct: not shown: His tag added to the C-terminus
T1 sequence (P51654 25-563 S495A/S509A, form in doubt): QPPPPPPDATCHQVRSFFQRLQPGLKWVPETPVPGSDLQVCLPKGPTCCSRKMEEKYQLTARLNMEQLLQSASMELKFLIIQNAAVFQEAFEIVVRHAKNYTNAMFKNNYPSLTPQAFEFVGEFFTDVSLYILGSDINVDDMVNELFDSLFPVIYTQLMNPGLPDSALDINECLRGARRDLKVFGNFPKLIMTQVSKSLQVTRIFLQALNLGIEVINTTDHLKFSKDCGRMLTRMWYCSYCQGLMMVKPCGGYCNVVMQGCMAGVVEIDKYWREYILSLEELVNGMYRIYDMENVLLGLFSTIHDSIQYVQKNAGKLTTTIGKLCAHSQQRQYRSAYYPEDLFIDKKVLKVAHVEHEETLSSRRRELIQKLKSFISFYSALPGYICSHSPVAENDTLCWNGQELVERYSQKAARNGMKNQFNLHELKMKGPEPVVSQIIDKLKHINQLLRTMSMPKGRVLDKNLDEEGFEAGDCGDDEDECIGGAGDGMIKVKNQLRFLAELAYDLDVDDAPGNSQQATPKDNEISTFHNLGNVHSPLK
// Inhibition of the binding of indicated biotin-Mab to sGPC3 core (%) lookup, one value per entry
# include the unit after the value

[
  {
    "Binder": "M18D4 (antibody, human IgG1, kappa, V domains shown, Mouse monoclonal from hybridoma) VH: EVQLQQSGTVLARPGASVKMSCKASGYTFTGYWMRWVKQRPGQGLEWIGAIYPGNSDTTYNQKFKGKAKLTAVTSVSTAYMELSSLTNEDSAVYYCSRSGDLTGGFAYWGQGTLVTVST VL: DIVMTQAAFSNPVTLGTSTSISCRSSKSLLHSNGITYLYWYLQKPGQSPQLLIYQMSNLASGVPDRFSSSGSGTDFTLRISRVEAEDVGVYYCAQNLELPYTFGSGTKLEIKR",
    "Observed": "38.6%"
  }
]

Value of measured Inhibition of the binding of indicated biotin-Mab to sGPC3 core (%) for the entry M11F1 (antibody, V domains shown, Mouse monoclonal from hybridoma) VH: QVTLKESGPGILQPSQTLSLTCSFSGFSLSIYGMGVGWIRQPSGKGLEWLANIWWNDDKYYNSALKSRLTISKDTSNNQVFLKISSVDTADTATYYCAQIGYFYFDYWGQGTTLTVSS VL: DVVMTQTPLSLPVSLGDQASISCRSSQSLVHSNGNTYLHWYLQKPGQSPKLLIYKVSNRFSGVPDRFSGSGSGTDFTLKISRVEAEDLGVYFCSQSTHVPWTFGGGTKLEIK : 5.6%

The binder listed as M1E7 (antibody, human IgG1, kappa, V domains shown, Mouse monoclonal from hybridoma; also called M1E07) VH: EVQLQQSGPELVKPGASVKISCKASGYSFTGYYMHWVKQSPEKSLEWIGEINPSTGGTTYNQKFKAKATLTVDKSSSTAYMQLKSLTSEDSAVYYCARRGGLTGTSFFAYWGQGTLVTVSA VL: DVVMTQTPLSLSVTIGQPASISCKSSQSLLYSNGKTYLNWLQQRPGQAPKHLMYQVSKLDPGIPDRFSGSGSETDFTLKISRVEAEDLGVYYCLQSTYYPLTFGAGTKLELKR has a reported Inhibition of the binding of indicated biotin-Mab to sGPC3 core (%) of 7.7%

Kindly note the recorded Inhibition of the binding of indicated biotin-Mab to sGPC3 core (%) for M10D2 (antibody, V domains shown, Mouse monoclonal from hybridoma) VH: QVQLQQPGAELVKPGASVKLSCKASGYTFTSYWMHWVKQRPGQGLEWIGEIDPSDSYTYYNQKFRGKATLTVDKSSNTAYMQLSSLTSEDSAVYYCSRSNLGDGHYRFPAFPYWGQGTLVTVSA VL: DIVLTQSPATLSVTPGDRVSLSCRASHSISNFLHWYPQKSHESPRLLIKYASQSISGIPSRFSGNGSGTDFTLSINSVETEDFGMYFCQQSNIWSLTFGAGTKLELK , which is -5.9%

Quick note, Inhibition of the binding of indicated biotin-Mab to sGPC3 core (%) for M5B9 (antibody, V domains shown, Mouse monoclonal from hybridoma) VH: EVQLQQSGTVLARPGASVKMSCKASGYTFTGYWMHWVKQRPGQGLEWIGAIYPGNSDTNYNQKFKGKAKLTAVTSASTAYMELSSLTNEDAAVYHCTRSGDLTGGLAYWGQGTLVTVSA VL: DIVMTQAAFSNPVTLGTSASISCRSSKSLLHSNGITYLYWFLQKPGQSPQLLIYQMSNLASGVPDRFSSSGSGTDFTLRISRVEAEDVGVYYCAQNLELPYTFGSGTKLEIK landed at 23.2%

Consider L9G11 (antibody, V domains shown, Mouse monoclonal from hybridoma) VH: QVQLQQPGAELVKPGASVKLSCKASGYTFTSYWMHWVKQRPGQGLEWIGTIDPSDSETHYNLQFKDTATLTVDKSSSTAYMQLSSLTSEDSAVYYCIRGAFYSSYSYWAWFAYWGQGTLVTVSA VL: DIVLTQSPTSLAVSLGQSVTISCRASESVEYYGTSLMQWYQQKPGQPPKLLIYGASNVESGVPARFSGSGSGTDFSLNIHPVEEDDIAMYFCQQSRKVPYTFGSGTKLEIK . Its measured Inhibition of the binding of indicated biotin-Mab to sGPC3 core (%) is 10.1%

Inhibition of the binding of indicated biotin-Mab to sGPC3 core (%) recorded for this binder, M6B1 (antibody, V domains shown, Mouse monoclonal from hybridoma) VH: EVQLVESGGDLVKPGGSLKLSCAASGFTFSSYAMSWVRQTPEKRLEWVAAINSNGGTTYYPDTMKDRFTISRDNAKNTLYLQMSSLRSEDSALYYCTRHNGGYENYGWFAYWGQGTLVTVSA VL: DIQMTQSPSSLSASLGGKVTITCKASQDINKNIIWYQHKPGKGPRLLIWYTSTLQPGIPSRFSGSGSGRDYSFSISNLEPEDIATYYCLQYDNLPRTFGGGTKLEIK , is 85.6%
